Where do these numbers come from? They come from ChEMBL document CHEMBL1201862.

System: RXF 393
Experiment: NCI tumour cell line growth inhibition, 48 h
Activity calls are given as the source filed them. Cut-off read from the data, not from the text of the source: active = GI50 up to about 1.1 µM and inactive = higher.
Allowed answers: active, inactive

Q: Each compound tested received a call. Report the one for S=C(N/N=C\c1ccccn1)N(Cc1ccccn1)Cc1ccccn1 .
Result: inactive

Q: I'd appreciate the recorded outcome for Cc1cc2[nH]c3c(C#N)c(-c4ccccc4)c(/C=N/c4ccc(Cl)cc4)c(=O)n3c2cc1C from this test.
Result: inactive

Q: Entry N#Cc1cc(C#N)c(Cl)nc1N : call = ?
Result: inactive

Q: Per the assay record, what outcome was assigned to C=C(C)[C@@H]1CC[C@]2(COC(C)=O)CC[C@]3(C)[C@H](CC[C@@H]4[C@@]5(C)CC[C@H](OC(C)=O)C(C)(C)[C@@H]5CC[C@]43C)[C@@H]12 [BETULIN DIACETATE] ?
Result: active

Q: Field: outcome | Entry: Cc1ccc(S(=O)(=O)Oc2coc(CO)cc2=O)cc1
Result: inactive

Q: Assay outcome for CC(C)(C)OC(=O)NC1CCCCC1NC(=O)C(=O)NC1CCCCC1NC(=O)OC(C)(C)C (stereo unspecified) : what was it?
Result: inactive

* * *

System: Malme-3M
Experiment: NCI tumour cell line growth inhibition, 48 h
Activity calls are given as the source filed them. Cut-off read from the data, not from the text of the source: active = GI50 up to about 1.1 µM and inactive = higher.
A correct response names exactly one class from active, inactive

Q: GET /call?item= CC1(C)CCC[C@@]2(C)C1C[C@H](O)[C@@]1(C)O[C@@](C)([C@H](O)CO)CCC21 (stereo partly drawn) returns the recorded outcome of this test.
Result: inactive

Q: Test call, this molecule: N=C(N)SCCc1ccccn1
Result: inactive

Q: State the result this test recorded for N#Cc1nc(CCC(C(=O)O)N2C(=O)c3ccccc3C2=O)oc1N (stereo not drawn) .
Result: inactive

Q: Field: outcome | Entry: COc1ccc(C2C=C(c3ccc4c(c3)OCO4)Oc3c2c(=O)oc2ccccc32)cc1OC (stereo not drawn)
Result: active

Q: What outcome does the record of this test show for CCOC(=O)/C=C(\C(=O)OCC)n1cc(C)c(=O)n(Cc2cnnn2COCCOC(C)=O)c1=O ?
Result: inactive

Q: Short answer needed: outcome of this test for O=CNc1ccccc1OCCOc1ccccc1NC=O ?
Result: inactive

Q: Given Cc1c(/N=N/c2ccccc2)c(-c2ccccc2)n(C2OC(CO)C(O)C(O)C2O)c(=S)c1C#N (stereo not drawn) , state the outcome it received in this test.
Result: inactive

Q: Recorded call for Cc1c(C(=O)C/C(=N/NC(=O)C[N+](C)(C)C)C(=O)Nc2ccc(Cl)cc2)[n+]([O-])c2ccccc2[n+]1[O-] ?
Result: inactive

* * *

Would you kindly list GI50 for each of these compounds?
Test system: HCC 2998
Experiment: NCI tumour cell line growth inhibition, 48 h
Active and inactive are the calls of the source. Rule as the data show it: active = GI50 up to about 1.1 µM and inactive = higher.

Q: Please tell me the measured GI50 for CC12O[C@]3([C@H](C(=O)N4CCOC43C)[C@H]1Cl)[C@H]1O[C@H]12 (stereo not given in full) ; system: HCC 2998.
Result: > 100 µM (inactive)

Q: Recall the reported GI50 of CC(=O)NC1=C(C)C(=O)c2c(nc3n2CCC3O)C1=O (stereo not given) when tested on HCC 2998.
Result: 54 µM (inactive)

Q: With HCC 2998 as the test system, provide measured GI50 for this compound: CCc1c(Cc2cccc3ccccc23)n2c(nc1=O)SCC2OCCO (stereo not given)
Result: 64.1 µM (inactive)

Q: Give GI50 only, for CC1(C)CCC(C)(C)c2cc(C(=O)Nc3ccc(C(=O)O)cc3)ccc21 , using HCC 2998 data.
Result: 19.2 µM (inactive)

Q: Find the measured GI50 of OC(CC(CC(O)(C(F)(F)Cl)C(F)(F)Cl)=NNc1ccccc1)(C(F)(F)Cl)C(F)(F)Cl with HCC 2998 as test system.
Result: 4.23 µM (inactive)

Q: Lab note: HCC 2998 assay, enter GI50 for CCCCCCCCCCCCC/C=C(/COCC[N+](C)(C)C)OC(C)=O.CCCCCCCCCCCCCC/C(=C/OCC[N+](C)(C)C)OC(C)=O here
Result: 4.04 µM (inactive)

Q: Report its GI50 with HCC 2998 as the test system: COC1=CC(=O)C(Br)=CC1=O
Result: 36.3 µM (inactive)

Q: Lab note: HCC 2998 assay, enter GI50 for O=C(O)CCO/N=C1/C(=C2/C(=O)Nc3ccccc32)Nc2ccccc21 here
Result: 15.3 µM (inactive)

Q: Return reported GI50 for target or system HCC 2998, item COc1cc2c(cc1OC)C(c1ccccc1CCCCl)=NCC2 .
Result: 46.9 µM (inactive)

Q: Given Cn1c(COC(=O)NC2CCCCC2)c(COC(=O)NC2CCCCC2)c2ccc3cc(C=O)ccc3c21 , report its GI50 on HCC 2998.
Result: > 100 µM (inactive)

Q: Give GI50 for Cc1ccc(S(=O)(=O)Oc2coc(CO)cc2=O)cc1 tested on HCC 2998.
Result: 13.7 µM (inactive)

Q: # return GI50 of CCc1c(C#N)c(=O)[nH]c(=O)n1CCN1CCN(C(=O)NCCCCCCNC(=O)N2CCN(CCn3c(CC)c(C#N)c(=O)[nH]c3=O)CC2)CC1 (system: HCC 2998)
Result: > 100 µM (inactive)

Q: # return GI50 of CCN(CC)C(=O)c1c(N2CCOCC2)cc(N(CC)CC)oc1=O (system: HCC 2998)
Result: > 100 µM (inactive)

Q: Enter measured GI50, system HCC 2998, for the compound shown: O=[N+]([O-])/C(C(Cl)=C(Cl)Cl)=C(/Sc1ccccc1)N1CCOCC1
Result: 15.3 µM (inactive)

Q: Provide HCC 2998 GI50 reading for CC(C)(C)C1CCC2c3c([nH]c4ccccc34)C3C(=O)N(c4ccc([N+](=O)[O-])cc4)C(=O)C3C2C1 (stereo not given) .
Result: 9.14 µM (inactive)

* * *

System: 786-0
Assay: NCI tumour cell line growth inhibition, 48 h
Active and inactive are the calls of the source. Rule as the data show it: active = GI50 up to about 1.1 µM and inactive = higher.
Consider the following compounds; for each one, report its GI50.

Q: Return the recorded GI50 value; entry: O=C(c1nc2ccc(Cl)cc2nc1O)C(O)c1ccc2c(c1)OCO2 (stereo not given)
Result: > 100 µM (inactive)

Q: Give reported GI50 value for COC1=CC(=O)C(Br)=CC1=O
Result: 18.6 µM (inactive)

Q: Report GI50 for c1ccc2c(c1)-c1ccccc1C2NC1=NCCO1
Result: 28.1 µM (inactive)

Q: Identify the reported GI50 for the following entry. Clc1ccc(C[P+]2(c3ccccc3)CCCCC2)cc1.[O-][Cl+3]([O-])([O-])[O-]
Result: > 100 µM (inactive)

Q: Output measured GI50 for this item: NCCNS(=O)(=O)c1ccc(N)cc1
Result: > 100 µM (inactive)

* * *

Test system: K562
Test: NCI tumour cell line growth inhibition, 48 h
The source made the active and inactive calls. No stated cut-off is given here; in the data, active = GI50 up to about 1.1 µM and inactive = higher.
Classes to choose from: active, inactive

Q: Hi, do you know how O=C(Nc1ccccc1)OCc1nc2c([nH]1)C(=O)C=CC2=O came out in this test?
Result: inactive

Q: Per the records of this test, what outcome belongs to CC1=NC(C)(COC(=O)C2(C)NC(C)(CO)CO2)COC1=O (stereo not given) ?
Result: inactive

Q: Please share the test call associated with CN(C)c1nc(N)c(C#N)c(C#N)c1C#N .
Result: inactive

Q: What is the recorded call for this compound in the test? C/C(=N\NC(=S)N(C)C)c1ncc[nH]1
Result: inactive

Q: Field: outcome | Entry: Clc1ccc(C2c3ccccc3-c3nc4ccccc4n32)cc1 (stereo not given)
Result: inactive

Q: What call does the record list for C[C@@H]1C[C@@]2(O[C@@H]2C)C(=O)O[C@@H]2CCN3CC=C(COC(=O)[C@]1(C)O)[C@H]23 ?
Result: inactive

Q: For COc1ccc(Cn2c3ccc([N+](=O)[O-])cc3c(=O)n2Cc2ccccn2)cc1 , which call appears in the assay record?
Result: inactive

Q: Each compound tested received a call. Report the one for CCc1ccc(Cc2ccc(CC)c(NC(=O)C(=O)C3NC(=S)NC3=O)c2CC)c(CC)c1NC(=O)C(=O)C1NC(=S)NC1=O (stereo not given) .
Result: inactive

Q: Look up the recorded call for O=S(=O)(c1cccc(C(F)(F)F)c1)N1c2ccccc2-n2cccc2C1c1cccnc1 (stereo not given) in this test.
Result: inactive

Q: Would you mind telling me which call this test gave CCCc1c[nH]c(-c2ccc(-c3cc(CCC)c(C=O)[nH]3)s2)c1 ?
Result: inactive

Q: Could you check what this test reported for COc1cc2c(cc1OC)C(c1ccccc1CCCCl)=NCC2 ?
Result: inactive

Q: What did the test return for CCc1ccccc1NC(=O)CCc1nnc(S)[nH]1 ?
Result: inactive

Q: // return assay outcome for CC(C)(C)C(=O)Nc1cccc2oc(-c3ccccc3)cc12
Result: inactive

Q: How did this test come out for CSc1nc(NC2OCC(OC(C)=O)C(OC(C)=O)C2OC(C)=O)c(/N=C\C=N\c2c(NC3OCC(OC(C)=O)C(OC(C)=O)C3OC(C)=O)nc(SC)[nH]c2=O)c(=O)[nH]1 (stereo not given) ?
Result: inactive

Q: Fill in: this test's call for Fc1ccc(C(OCCN2CCC3CCC(C2)N3C/C=C/c2ccco2)c2ccc(F)cc2)cc1 (stereo not given) is ___
Result: inactive

Q: Identify the outcome logged in this assay for the compound shown: CCCN(CCC)CCc1ccc(OC2=CCN(C)CC2)cc1
Result: inactive

Q: How did this test come out for CCNC1CC(n2cc(C)c(=O)[nH]c2=O)OC1CO (stereo not given) ?
Result: inactive

Q: Each compound tested received a call. Report the one for N#Cc1cnn2c1n[n+]([O-])c1ccc(Cl)cc12 .
Result: inactive

Q: Could you kindly confirm the outcome this assay logged for Cc1cc(NS(=O)(=O)c2ccc(NC(=O)c3cccc4c(Nc5ccc(S(=O)(=O)N=C(N)N)cc5)c5ccccc5nc34)cc2)no1 ?
Result: inactive

Q: Fill in: this test's call for C=CCC1(O)c2cccc(O)c2C(=O)c2cccc(O)c21 (stereo not given) is ___
Result: inactive

Q: Field: outcome | Entry: CCN(CC)CCC(=O)c1ccc(Oc2ccc(C)cc2)cc1
Result: inactive

Q: Any idea what this test logged for CC(=O)O[C@H]1CC[C@]2(C=O)[C@H]3CC[C@]4(C)[C@@H](C5=CC(=O)OC5)CC[C@]4(O)[C@@H]3CC[C@]2(O)C1 [STROPHANTHIDIN ACETATE] ?
Result: active

Q: Could you kindly confirm the outcome this assay logged for O=c1[nH]c(Nc2nc3ccccc3[nH]2)nc2c1CCC2 ?
Result: inactive

Q: Record request — test call for COc1ccc2nc3ccccc3c(NCCCCN(CCCl)CCCl)c2c1
Result: active

Q: What classification did CCOC(=O)c1cnc2oc(/C=N/N3CC(CN4CCOCC4)OC3=O)cc2c1O (stereo not given) end up with in this test?
Result: inactive

Q: How was CCOC(=O)CCc1c(C)c2ccc(O)cc2oc1=O classified in this test?
Result: inactive

Q: Assay result, entry O=c1[nH]c(=O)n(C2CC(O)C(CO)O2)cc1C#Cc1cc(C(F)(F)F)cc(C(F)(F)F)c1 (stereo not given) — outcome?
Result: inactive

Q: Recorded test call requested for Cc1ccc(C2=[N+]([O-])c3ccccc3C2=O)cc1
Result: inactive

Q: Called result for CC(C(O)c1ccccc1)[N+](=O)[O-] (stereo not given)
Result: inactive

Q: Call for entry CCOC(=O)NN(C(=O)OCC)C(C(=O)c1ccccc1)N(NC(=O)OCC)C(=O)OCC :
Result: inactive

Q: Assay outcome for Fc1ccc(/C=C2\COCC3=C2NC(=S)NC3c2ccc(F)cc2)cc1 (stereo not given) : what was it?
Result: inactive

Q: For this compound, state the assay outcome: O=C(OCc1ccccc1)n1cccc1
Result: inactive

Q: Record lookup: outcome of this test for COC(=O)/C(=N\NC(=O)c1ccccc1O)C(C#N)c1ccc(Cl)cc1 (stereo not given) ?
Result: inactive

Q: Assay result, entry Cc1nc(O)c2c3c(sc2n1)CCCC3 — outcome?
Result: inactive

Q: Given O=C(O)C1(C(=O)O)CC1 , state the outcome it received in this test.
Result: inactive
